# Test system: PC3 (Prostate)
# Protocol Text: 48 hr cytotoxicity, PC-3
# Assay type: cell-based, human
# Procedure: B16-F10 (ATCC; CRL-6475), DU 145 (ATCC; HTB-81), HEK293 (ATCC; CRL-1573), HT-29 (ATCC; HTB-38), LoVo (ATCC; CCL-229), MDA-MB-231 (ATCC; HTB-26), MIA PaCa-2 (ATCC; CRL-1420), NCI-H292 (ATCC; CRL-1848), OVCAR-3 (ATCC, HTB-161), PANC-1 (ATCC; CRL-1469), PC-3 (ATCC; CRL-1435), RPMI 8226 (ATCC; CCL-155) and U266 (ATCC; TIB-196) are maintained in appropriate culture media. The cells are cultured in an incubator at 37° C. in 5% CO2 and 95% humidified air. […]

{"Compound": "C=CC(=O)C1(C)CCCC2(C)C3=CCC(C)(C=C)C[C@@H]3CC[C@H]12 (stereo in doubt) [NPI-1387]", "Unit Spec": "µM", "IC50": 10}

###

# Protocol Text: 48 hr cytotoxicity, B16-F10 melanoma
# Format: cell-based, murine
# Test Conditions: mouse, B16-F10 melanoma cells, 10% FBS, individual values

{"Compound": "C=CC(=O)C1(C)CCCC2(C)C3=CCC(C)(C=C)C[C@@H]3CC[C@H]12 (stereo in doubt) [NPI-1387]", "Unit Spec": "%", "cytotoxicity at 48 h": 94}

###

# System: RPMI 8226 (MM)
# Protocol Text: 48 hr cytotoxicity, RPMI 8226
# Assay type: cell-based, human
pIC50: −log10 of the molar value.
Measurement Kind: pIC50

{"Compound": "C=CC(=O)C1(C)CCCC2(C)C3=CCC(C)(C=C)C[C@@H]3CC[C@H]12 (stereo in doubt)", "Assay Value": 5.26}

###

# Test system: RPMI 8226 cells
# Protocol Text: cell growth inhibition, RPMI 8226, Resazurin, 1% FBS
# Assay type: cell-based, Human
# Test Conditions: Homo sapiens, RPMI-8226, 48 h, 48 hr of drug exposure
pEC50: −log10 of the molar value.
Measurement Kind: pEC50

{"Molecule": "C=C[C@@]1(C)CCC=C2[C@H]1CC[C@@H]1[C@](C)(C(=O)N3CCOCC3)CCC[C@@]21C", "Assay Value": 4.85}
{"Molecule": "C=C[C@@]1(C)CCC=C2[C@H]1CC[C@@H]1[C@](C)(C(=O)NC3CCCCC3)CCC[C@@]21C [Formula (IIB-A1), N-Cyclohexylamide Derivative of TTL]", "Assay Value": 4.68}
{"Molecule": "C=C[C@@]1(C)CCC=C2[C@H]1CC[C@@H]1[C@](C)(CNCCN)CCC[C@@]21C [CC-3-13P]", "Assay Value": 5.64}

###

# Tested on: THP-1 cells
# Protocol Text: resazurin viability assay in THP-1 cells
# Type: cell-based, human
# Test Conditions: 1 ug/ml, * mild, ** marked reduction in viability, in % (unit assumed)
Entries annotated with measured Effect on Cell Viability

{"Compound Smiles": "C=C[C@@]1(C)CCC=C2[C@H]1CC[C@@H]1[C@](C)(C(=O)N3CCOCC3)CCC[C@@]21C", "Effect on Cell Viability": 100}
{"Compound Smiles": "C=C[C@@]1(C)CCC=C2[C@H]1CC[C@@H]1[C@](C)(COC(=O)CN3CCOCC3)CCC[C@@]21C", "Effect on Cell Viability": 100}
{"Compound Smiles": "C=C[C@@]1(C)CCC=C2[C@H]1CC[C@@H]1[C@](C)(C(=O)O)CCC[C@@]21C", "Effect on Cell Viability": 100}
{"Compound Smiles": "C=C[C@@]1(C)CCC=C2[C@H]1CC[C@@H]1[C@](C)(C(=O)OC)CCC[C@@]21C", "Effect on Cell Viability": 100}

Provenance of the data: patent US7893299B2
